Values compiled from patent US20240239811A1.

- Tested on: HTT mRNA
- procedure.details: Splicing assay (RT-qPCR) monitoring HTT splice variants, canonical (CJ) and alternative (AJ) junction
- Type: cell-based
- assay.conditions: decrease in CJ mRNA, 50% response, A673 or K562 cell line, 24 hours
endpoint: IC50

smiles.data: Cn1cc2cc(-c3nc4sc(N5CCNC6(CC6)C5)cc4s3)cc(F)c2n1
IC50: > 10 µM

Challenge: Returns the measured IC50 for the input molecule. Input: Cc1cn2nc(-c3cc4cn(C5CCNCC5)nc4s3)cc2c(C)n1
Response given: 1 to 10 µM

====

- Tested on: HTT mRNA
- procedure.details: Splicing assay (RT-qPCR) monitoring HTT splice variants, canonical (CJ) and alternative (AJ) junction
- Format: cell-based
- assay.conditions: increase in AJ mRNA, 50% response, A673 or K562 cell line, 24 hours
endpoint: AC50

Recorded results for 3 compounds are shown here.
compound: Cc1cn2nc(-c3nc4sc(C5CNC5)cc4s3)cc(C)c2n1
endpoint: AC50
result.value: 1000 to 10000 nM
//
compound: CN1CCCC2(CCN2c2cc3sc(-c4cc(F)c5nn(C)cc5c4)nc3s2)C1 (centres unmarked)
endpoint: AC50
result.value: > 10000 nM
//
compound: Cc1cn2nc(-c3nc4sc(C5CCNCC5)cc4s3)cc(C)c2n1
endpoint: AC50
result.value: < 100 nM

Challenge: Returns the measured AC50 for the input compound. Input: Cn1cc2cc(-c3cc4cn(C5CCNCC5)nc4s3)ccc2n1
Response given: 100 to 1000 nM

Challenge: Returns the measured AC50 for the input compound. Input: CN1CCC2(CC1)CCN2c1cc2sc(-c3cc(F)c4nn(C)cc4c3)nc2s1
Response given: 1000 to 10000 nM

====

Recorded measurements of IC50, one per entry
- Tested on: HTT mRNA
- procedure.details: Splicing assay (RT-qPCR) monitoring HTT splice variants, canonical (CJ) and alternative (AJ) junction
- Type: cell-based
- assay.conditions: decrease in CJ mRNA, 50% response, A673 or K562 cell line, 24 hours
Where a name gives a salt, the structure may show the parent alone.

Recorded results for 2 compounds are shown here.
compound: Cn1cc2cc(-c3nc4sc(N5CCC(NC(C)(C)C)C5)cc4s3)cc(F)c2n1 (centres unmarked)
endpoint: IC50
result.value: 1 to 10 µM
//
compound: Cn1cc2ccc(-c3nc4sc(C5CCNCC5)cc4s3)cc2n1 [Compound 127, hydrochloride]
endpoint: IC50
result.value: 1 to 10 µM

Challenge: Returns the measured IC50 for the input compound. Input: Cc1cn2cc(-n3cc4cc(C5CCNCC5)sc4n3)ncc2n1
Response given: 0.1 to 1 µM

Challenge: Returns the measured IC50 for the input compound. Input: Cc1cn2cc(-n3cc4cc(C5CCNCC5)sc4n3)cc(C)c2n1
Response given: 0.1 to 1 µM

Challenge: Returns the measured IC50 for the input compound. Input: c1n[nH]cc1-n1cc2sc(C3CCNCC3)cc2n1
Response given: > 10 µM

====

Recorded measurements of AC50, one per entry
- Test system: HTT mRNA
- procedure.details: Splicing assay (RT-qPCR) monitoring HTT splice variants, canonical (CJ) and alternative (AJ) junction
- Format: cell-based
- assay.conditions: increase in AJ mRNA, 50% response, A673 or K562 cell line, 24 hours

molecule: Cc1cn2cc(-c3nc4sc(C5CCNCC5)cc4s3)cc(Cl)c2n1
AC50: < 100 nM
//
molecule: Cc1cn2nc(-n3cc4sc(C5CCNCC5)cc4n3)cc(C)c2n1
AC50: 100 to 1000 nM

Challenge: Returns the measured AC50 for the input molecule. Input: CCN1CCC(n2cc3cc(-c4cc(F)c5nn(C)cc5c4)sc3n2)CC1
Response given: < 100 nM

Challenge: Returns the measured AC50 for the input molecule. Input: Cc1cn2nc(-c3cc4cn([C@H]5CCNC[C@@H]5F)nc4s3)cc(C)c2n1 (mixture of isomers)
Response given: 1000 to 10000 nM

Challenge: Returns the measured AC50 for the input molecule. Input: C[C@@H]1C[C@@H](c2cc3sc(-c4cc(F)c5nn(C)cc5c4)nc3s2)CCN1
Response given: < 100 nM

Challenge: Returns the measured AC50 for the input molecule. Input: Cc1cn2nc(-n3cc4cc(C5CCNCC5)sc4n3)nc2c(C)n1
Response given: 1000 to 10000 nM

Challenge: Returns the measured AC50 for the input molecule. Input: Cc1cn2cc(-n3cc4sc(C5CCNCC5)cc4n3)ncc2n1
Response given: 1000 to 10000 nM

Challenge: Returns the measured AC50 for the input molecule. Input: Cn1cc2cc(-c3nc4sc(C5(O)CCNCC5)cc4s3)cc(F)c2n1
Response given: 1000 to 10000 nM

Challenge: Returns the measured AC50 for the input molecule. Input: Cc1cn2cc(-n3cc4sc(C5CCNCC5)cc4n3)cc(C)c2n1
Response given: 1000 to 10000 nM
